# assay_system: full-length beta-Catenin (Uniprot ID P35222) (Homo sapiens, UniProt P35222)
# Construct: 10 nM full-length beta-Catenin (Uniprot ID P35222)
# Sequence (P35222 whole entry): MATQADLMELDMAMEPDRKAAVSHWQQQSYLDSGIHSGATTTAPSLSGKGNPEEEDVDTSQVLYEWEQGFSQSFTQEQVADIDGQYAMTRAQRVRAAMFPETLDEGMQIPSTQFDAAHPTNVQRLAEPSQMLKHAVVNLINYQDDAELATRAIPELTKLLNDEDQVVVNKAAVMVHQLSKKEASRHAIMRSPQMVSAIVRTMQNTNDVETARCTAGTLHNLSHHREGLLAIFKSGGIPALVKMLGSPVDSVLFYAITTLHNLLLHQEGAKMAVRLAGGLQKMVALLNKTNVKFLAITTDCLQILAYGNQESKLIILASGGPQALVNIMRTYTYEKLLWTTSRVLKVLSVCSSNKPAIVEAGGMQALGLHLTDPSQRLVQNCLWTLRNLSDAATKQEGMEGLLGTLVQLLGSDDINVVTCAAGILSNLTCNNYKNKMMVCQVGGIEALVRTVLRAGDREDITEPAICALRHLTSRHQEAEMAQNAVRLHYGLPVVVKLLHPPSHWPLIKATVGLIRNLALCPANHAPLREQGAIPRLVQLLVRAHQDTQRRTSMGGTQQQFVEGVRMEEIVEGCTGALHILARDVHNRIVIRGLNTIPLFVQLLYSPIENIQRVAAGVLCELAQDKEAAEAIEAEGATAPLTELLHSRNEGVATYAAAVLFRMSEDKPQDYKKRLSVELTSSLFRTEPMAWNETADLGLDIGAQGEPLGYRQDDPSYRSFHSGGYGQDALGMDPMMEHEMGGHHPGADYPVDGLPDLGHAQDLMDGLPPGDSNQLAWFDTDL
# procedure_text: Fluorescence polarization IC50 (beta-catenin / 5FAM-TCF4 10-53 competition)
# Assay type: binding
# applied_conditions: fluorescence polarization; read-out: beta-Catenin FP IC50
reported_property: IC50 (nM)
Reply numerically in nM, unit not repeated.

CC(=O)N1CCC[C@]12CC=CCCCC1(CCCC=CCCCOC(=O)N3CC[C@@](C(=O)N[C@@H](Cc4ccccc4C(F)(F)F)C(=O)N[C@@H](Cc4csc5ccccc45)C(=O)N[C@H](C)C(N)=O)(C3)NC(=O)[C@H](CC(C)C)NC(=O)[C@H](Cc3ccccc3)NC(=O)[C@@H](C)NC(=O)[C@H](C)NC(=O)[C@H](Cc3cccc(C(=O)O)c3)NC(=O)[C@H](CC(=O)O)NC1=O)NC(=O)[C@H](CC(C)(C)C)NC(=O)[C@H](CC(=O)O)NC2=O (some centres unmarked)    424
CC(=O)N1CCC[C@]12CC=CCCCC1(CCCC=CCCCOC(=O)N3CC[C@@](C(=O)N[C@@H](Cc4ccccc4)C(=O)N[C@@H](Cc4csc5ccccc45)C(=O)N[C@@H](CCC(N)=O)C(N)=O)(C3)NC(=O)[C@H](CC(C)C)NC(=O)[C@H](Cc3ccccc3)NC(=O)[C@H](C)NC(=O)[C@H](CCCCNC(C)C)NC(=O)[C@H](CCC(N)=O)NC(=O)[C@H](CC(=O)O)NC1=O)NC(=O)[C@H](CC1CCCCC1)NC(=O)[C@H](CC(N)=O)NC2=O (some centres unmarked)    191
CC(=O)N1CCC[C@]12CC=CCCCC1(CCCC=CCCCOC(=O)N3CC[C@@](C(=O)N[C@@H](Cc4ccsc4)C(=O)N[C@@H](Cc4csc5ccccc45)C(=O)N[C@@H](CCC(N)=O)C(=O)N[C@H](CO)Cc4ccccc4)(C3)NC(=O)[C@H](CC(C)C)NC(=O)[C@H](Cc3ccccc3)NC(=O)[C@H](C)NC(=O)[C@H](C)NC(=O)[C@H](CN(CC(=O)O)CC(F)(F)F)NC(=O)[C@H](CC(=O)O)NC1=O)NC(=O)[C@H](CC(C)(C)C)NC(=O)[C@H](CC(=O)O)NC2=O (some centres unmarked)    80.5
CCSSCCOC(=O)CC[C@@H]1NC(=O)[C@H](CC(=O)O)NC(=O)C2(CCCC=CCCCOC(=O)N3CC[C@@](C(=O)N[C@@H](Cc4ccsc4)C(=O)N[C@@H](Cc4csc5ccccc45)C(=O)N[C@@H](CCC(N)=O)C(N)=O)(C3)NC(=O)[C@H](CC(C)C)NC(=O)[C@H](Cc3ccccc3)NC(=O)[C@H](C)NC(=O)[C@H](C)NC1=O)CCCC=CC[C@]1(CCCN1C(C)=O)C(=O)N[C@@H](CC(=O)O)C(=O)N[C@@H](CC(C)(C)C)C(=O)N2 (some centres unmarked)    566

Now take the following compound into account.
Given the compound CC(=O)N1CCC[C@]12CC=CCCC1(CCC=CCCCOC(=O)N3CC[C@@](C(=O)N[C@@H](Cc4ccsc4)C(=O)N[C@@H](Cc4csc5ccccc45)C(=O)N[C@@H](CCC(N)=O)C(N)=O)(C3)NC(=O)[C@H](CC(C)C)NC(=O)[C@H](Cc3ccccc3)NC(=O)[C@H](C)NC(=O)[C@H](C)NC(=O)[C@H](CC(=O)O)NC(=O)[C@H](CC(=O)O)NC1=O)NC(=O)[C@H](CC(C)(C)C)NC(=O)[C@H](CC(=O)O)NC2=O (some centres unmarked) [I-1971] , what is its reported IC50?
475
